These entries and their values trace back to patent US20190119389A1.

- assay system: T1, Human NRP-1 His (human, UniProt O14786 22-856)
- T1 construct: Recombinant monomeric protein; Biotinylated in the MSD-SET assay; also called hNRP-1; not shown: His tag
- T1 sequence (O14786 22-856 V179A limits assumed): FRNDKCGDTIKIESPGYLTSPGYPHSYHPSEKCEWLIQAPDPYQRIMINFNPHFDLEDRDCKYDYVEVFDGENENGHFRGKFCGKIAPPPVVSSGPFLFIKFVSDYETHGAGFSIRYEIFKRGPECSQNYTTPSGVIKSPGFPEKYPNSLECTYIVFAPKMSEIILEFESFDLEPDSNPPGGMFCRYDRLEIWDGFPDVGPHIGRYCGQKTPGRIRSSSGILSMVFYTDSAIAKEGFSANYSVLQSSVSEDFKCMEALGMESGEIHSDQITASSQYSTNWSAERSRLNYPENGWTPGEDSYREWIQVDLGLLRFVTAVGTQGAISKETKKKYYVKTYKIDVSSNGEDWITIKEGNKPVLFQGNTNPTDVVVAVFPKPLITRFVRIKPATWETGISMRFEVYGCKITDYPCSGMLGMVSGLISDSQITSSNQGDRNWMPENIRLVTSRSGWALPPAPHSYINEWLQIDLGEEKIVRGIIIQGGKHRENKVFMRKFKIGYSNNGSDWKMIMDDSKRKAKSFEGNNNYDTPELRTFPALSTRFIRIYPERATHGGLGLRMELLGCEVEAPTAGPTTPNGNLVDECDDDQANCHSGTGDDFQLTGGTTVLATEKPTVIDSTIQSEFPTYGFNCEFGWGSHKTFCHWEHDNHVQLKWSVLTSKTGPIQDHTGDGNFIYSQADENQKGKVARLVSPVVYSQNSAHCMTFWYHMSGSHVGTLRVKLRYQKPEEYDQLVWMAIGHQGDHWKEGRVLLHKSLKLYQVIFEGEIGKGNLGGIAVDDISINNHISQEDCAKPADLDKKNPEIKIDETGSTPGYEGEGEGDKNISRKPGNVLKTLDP
- protocol summary: MSD-SET solution equilibrium titration, Fab
Examples of binders with documented Kd follow.
Give just the numeric value; nM need not be written.

MAB3 Fab (Fab, V domains shown) VH: QAQLVQSGAEVKKPGASVKVSCKASGYTFSRYYMHWVRQAPGQGLEWMGIINPLGGSTLYAQKFQGRVTMTRDTSTSTVYMELSSLRSEDTAVYYCARDLGYYGSGMHAWGQGTLVTVSS VL: DIQMTQSPSSVSASVGDRVTITCRASQGISRWLAWYQQKPGKAPKLLIYAASSLQSGVPSRFSGSGSGTDFTLTISSLQPEDFATYYCQQANLLPFTFGGGTKVEIK	0.06

Then this binder:
Request: Need Kd, item MAB8 Fab (Fab, V domains shown) VH: EVQLLESGGGLVQPGGSLRLSCAASGFTFASYAMVWVRQAPGKGLEWVSIISGSGGSTYYADSVKGRFTISRDNSKNTLYLQMNSLRAEDTAVYYCAKDPGYDSSRYYYSNYGMDVWGQGTTVTVSS VL: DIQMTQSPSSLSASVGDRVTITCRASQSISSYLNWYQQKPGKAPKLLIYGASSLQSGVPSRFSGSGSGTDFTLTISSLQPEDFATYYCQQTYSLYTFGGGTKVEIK
Response: 0.096
